Data provenance: ChEMBL document CHEMBL3988442

- TESTED_SYSTEM: Proteasome subunit beta (Trypanosoma cruzi) (UniProt O96673)
- Sequence (whole entry): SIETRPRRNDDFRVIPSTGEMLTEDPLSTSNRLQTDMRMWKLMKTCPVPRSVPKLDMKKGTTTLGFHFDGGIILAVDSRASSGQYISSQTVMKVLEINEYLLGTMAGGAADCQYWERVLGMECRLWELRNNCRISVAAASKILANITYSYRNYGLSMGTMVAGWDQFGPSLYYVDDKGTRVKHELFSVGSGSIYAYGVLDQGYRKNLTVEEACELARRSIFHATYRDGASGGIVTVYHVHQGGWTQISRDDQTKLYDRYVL
- PROTOCOL_NOTES: Trypanosoma cruzi proteasome chymotrypsin-like activity (TcProtChymo) assay. Note: in the data most compounds retested in dose-response had high values.
- Format: functional
- Set-up: scale not given: direction of the effect not stated beside the values
- CONDITION_SUMMARY: 9.37 µM
PARAMETER: Percent Effect (%)
Give bare numbers, in %.

# count of solved cases: 4
CN1[C@H](CN2CCCC2)C[C@@H]2CN(C(=O)Cc3cccs3)CC[C@@H]21; 5.75
CN(CCCOc1ccccc1)C(=O)CN1CCc2cncnc2C1; 10.6
CN(CCn1nc2ccccn2c1=O)CC(=O)NC1CC1; 10.4
CC(NCc1c(C(C)C)nn(C)c1N1CCOCC1)C(N)=O (stereo not given); 14.8

Kindly consider the entry below.
Request: Give Percent Effect only, for CC(CN1CCOCC1)NCC1CCN(c2cnn(C)c(=O)c2)CC1 (stereo not given) , using Proteasome subunit beta (Trypanosoma cruzi) (UniProt O96673) data.
Result: 4.21

====

- Organism: Homo sapiens
- PROTOCOL_NOTES: To identify inhibition of the IFN signalling (Jak-Stat) pathway via expression of an eGFP reporter gene under the control of an IFN-stimulated response element (ISRE) containing MxA promoter.
- Assay type: functional
- Set-up: scale not given: direction of the effect not stated beside the values
- CONDITION_SUMMARY: 30 µM
Please go through the items and note down their Percent Effect.
One number for each entry, in %.

COCCCC1CCCN(C(=O)CCc2cc(O)no2)C1 (stereo unspecified); 12.3
NC(=O)c1ccc2c(c1)nc1n2CCN(Cc2ccccc2)C1; 5.05

I would be grateful if you could provide Percent Effect for each of the following entries.
1. CCCS(=O)(=O)N1CCC2(CN(c3cnn(C)c3)C(=O)CN2C)C1 (stereo unspecified)
2. CC(=O)NCC(=O)N1Cc2nccn2CC(Cn2cccn2)C1 (stereo unspecified)
3. Cc1cnn(CCNCc2csc(-c3ccc(F)cc3)n2)c1
4. COc1ccc(CN(C)C(=O)NCc2c(C)cc(C)[nH]c2=O)cc1

Result:
1. 6.16
2. 3.41
3. 1.14
4. 9.7

Report Percent Effect for each item below.
1. O=C(c1cc(C2CC2)[nH]n1)N1CCN(Cc2ccsc2)CC1
2. CC(C)N1CCCC2(CCN(C(=O)CCCn3ccnc3)C2)C1=O (stereo unspecified)
3. c1ncn(CC2CN(Cc3noc(C4CC4)n3)CCO2)n1 (stereo unspecified)
4. O=C(c1ccoc1)N1CCC2(CC1)C(=O)Nc1ccccc12
5. c1cnc2c(c1)cc(C1CCOCC1)n2CCN1CCOCC1
6. COc1cccc(F)c1C(=O)N1C[C@@H](CN(C)CCO)[C@@H](CO)C1

Result:
[9.93, -5.32, 15.2, 37.9, 4.82, -11]

// for each compound below, give its Percent Effect
1. CCn1ccnc1CN1CCCC(CO)(Cc2cccc(Cl)c2)C1 (stereo unspecified)
2. CN(Cc1cnn(C)c1)C(=O)Cn1c(CS(C)(=O)=O)nc2ccccc21
3. CCN(CC)C1CCN(C(=O)NCc2nncn2CC)CC1

Result:
1. -2.28
2. 9.18
3. 21.2

Provide reported Percent Effect for each item, in the same order as listed.
1. CS(=O)(=O)c1cccc(C(N)c2ccc(F)c(F)c2)c1 (stereo unspecified)
2. O=C(CSC1=NS(=O)(=O)c2cc(F)ccc2N1)Nc1cccc(Cl)c1

Result:
23.5
26.7

Provide reported Percent Effect for each item, in the same order as listed.
1. Cc1cc2c(=O)n3c(nc2s1)CCN(Cc1cnn(C)c1C)CC3
2. CCn1cc(NC(=O)CCc2ccc3c(c2)OCCCO3)cn1
3. Cc1ccccc1OCCC(=O)OC(C)C(=O)Nc1sccc1C(N)=O (stereo unspecified)
4. Cc1nc(C)n(C2CCCN(C(=O)c3ccc(F)cc3F)C2)n1 (stereo unspecified)
5. CS(=O)(=O)NCC(=O)N1CCCC1c1noc(C2CC2)n1 (stereo unspecified)
6. O=C(N[C@@H]1CN(Cc2cccs2)[C@@H]2CCCO[C@@H]21)C1CC1
7. Cc1cnn(C(C)C2CC2)c1NC(=O)c1ccncc1 (stereo unspecified)

Result:
7.67
0.692
44.8
-8.13
0.475
1.32
-1.9

Parameters: items (list). Returns: Percent Effect for each item.
1. CCCc1cc(C(=O)N2CCCC2c2cccnc2)[nH]n1 (stereo unspecified)
2. O=C(O)c1ccc2ccc(N3CCN(CC4CC4)CC3)n2c1
3. Cn1cc(Cl)cc1C(=O)N1CCCN(Cc2cccs2)CC1
4. O=S(=O)(c1cccs1)N1CCCn2cnc(CN3CCCC3)c2C1
5. CN1CCN(C[C@@H]2CN(C(=O)c3ccccc3C#N)C[C@@H]2CO)CC1

Result:
[10.1, 7.8, -3.88, 7.16, 7.14]

// batch mode: one Percent Effect value per listed entry
1. CC(=O)NCCNC(=O)c1sc(-c2ccc(C)cc2C)nc1C
2. CC(C)Cc1noc(CN2CCN(C(=O)c3ccco3)CC2)n1
3. Cn1cnnc1CNC(=O)Nc1cc(C(F)(F)F)c[nH]c1=O

Result:
1. 10.8
2. 5.51
3. 2.52

Take each entry in turn and give its Percent Effect.
1. Cc1cc(C)n(Cc2cccc(C(=O)NCCN3CCOCC3)c2)n1
2. COc1cn(-c2ccccc2)nc1C(=O)NCCCN1CCCC(C)C1 (stereo unspecified)
3. O=C(c1ccccn1)N1CCn2cnc(COCC3CC3)c2C1
4. CCOc1ccc(CC(CNC(=O)c2ccoc2)C(N)=O)cc1 (stereo unspecified)

Result:
1: 9.8; 2: 5.68; 3: -0.697; 4: 7.68
